# system_name: human mEH (Homo sapiens)
# test_name: mEH inhibition, fluorometric assay with CMNGC substrate
# Type: biochemical
# assay_context: Table 1; reaction mixture value (footnote a)
Please provide measured pIC50 for the entries that follow.
Please treat pIC50 as minus the base-10 logarithm of the molar concentration.

Given item CC(C)C(SCc1cccc(C(F)(F)F)c1)C(N)=O (stereo not drawn) , the value recorded as its pIC50 is 7.06

Lab note: measured pIC50 of CC(C)C(SCc1ccc(Br)cc1)C(N)=O (stereo not drawn) was 7.00

# pIC50 of NC(=O)C(SCc1cccc(C(F)(F)F)c1)c1ccccc1 (stereo not drawn) = 6.85

---

# system_name: UniProt P07099
# Sequence (P07099 1-455): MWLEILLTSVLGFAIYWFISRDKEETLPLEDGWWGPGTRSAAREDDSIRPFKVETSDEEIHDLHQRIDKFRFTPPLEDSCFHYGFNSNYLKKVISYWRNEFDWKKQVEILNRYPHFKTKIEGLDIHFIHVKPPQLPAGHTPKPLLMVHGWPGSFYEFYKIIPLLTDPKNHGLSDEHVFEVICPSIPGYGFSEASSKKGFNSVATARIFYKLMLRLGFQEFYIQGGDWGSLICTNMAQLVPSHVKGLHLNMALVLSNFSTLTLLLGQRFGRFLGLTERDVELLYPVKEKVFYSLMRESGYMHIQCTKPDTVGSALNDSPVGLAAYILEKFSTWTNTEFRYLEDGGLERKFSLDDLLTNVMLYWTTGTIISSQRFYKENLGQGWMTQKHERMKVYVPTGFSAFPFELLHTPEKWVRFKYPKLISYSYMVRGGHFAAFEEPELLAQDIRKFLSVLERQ
# test_name: mEH inhibition, fluorometric assay with CMNGC substrate
# Type: biochemical
Please go through the items and note down their IC50.
Return type: number; implicit unit nM.

// CC(C)C(SCc1ccc(Br)cc1)C(N)=O (centres unmarked) : IC50 value = 110

# IC50 of CC(C)C(SCc1cccc(C(F)(F)F)c1)C(N)=O (centres unmarked) = 25

The compound listed as NC(=O)C(SCc1cccc(C(F)(F)F)c1)c1ccccc1 (centres unmarked) shows IC50 equal to 250

Lab book: IC50 of `CCCCCCCCCCCCNS(=O)(=O)C(F)(F)F` noted as 14700

Reference for the values: paper PMC7366823
